System: Mycolicibacterium smegmatis
Test: Antimycobacterial activity against Mycobacterium smegmatis harboring MsmgdeltammpL3/pMVGHI-mmpL3tb G253E mutant assessed as reduction in bacterial growth measured after 16 hrs […]
Format: functional
Parameter Measured: MIC=>90 (µg/mL)
Your answer should be a plain number; it is taken to be in µg/mL.

Examples with answers:
query: Which MIC=>90 is listed for `O=C(NC1CCCCCCC1)c1cc(-c2ccc(F)nc2F)c[nH]1` ?
result: 4

query: Which MIC=>90 is listed for O=C(NC1C2CC3CC(C2)CC1C3)c1cc(-c2ccc(F)nc2F)c[nH]1 (stereo not given) ?
result: 4

query: Which MIC=>90 is listed for `O=C(NC1CCCCCCC1)c1cc(-c2ccc(F)cc2F)c[nH]1` ?
result: 2

Consider the record given below.
query: Which MIC=>90 is listed for `O=C(NC12CC3CC(CC(C3)C1)C2)c1cc(-c2ccc(F)cc2F)c[nH]1` ?
result: 2
